# targetEntity: Human autotaxin enzyme (Homo sapiens)
# Construct: purchased R&D System
# experimentSummary: Evaluation of autotaxin inhibitor, 18:0 Lyso PC / choline assay (Test Example 2)
# Format: biochemical
# cond: human autotaxin enzyme, 18:0 Lyso PC substrate, choline assay, room temperature 2 hours; read-out: Inhibitor activity (IC50)
metric: IC50

>  <compound>
COC(=O)Nc1cc(Cl)ccc1-c1cc(=O)n(CC(=O)NC2(C)COC2)c(C)n1 [Compound I-0410]

>  <metric>
IC50

>  <valueMeasured>
< 0.01 µM

$$$$
>  <compound>
CC(C)(O)CN1CCN(C(=O)Cn2c(CCCC(F)(F)F)nc(-c3ccc(C(F)(F)F)cc3)cc2=O)CC1 [Compound I-0357]

>  <metric>
IC50

>  <valueMeasured>
0.1 to 1 µM

$$$$
>  <compound>
CCNC(=O)N1CCC(NC(=O)Cn2c(CCCC(F)(F)F)nc(-c3ccc(Cl)cc3)cc2=O)CC1 [Compound I-0128]

>  <metric>
IC50

>  <valueMeasured>
0.01 to 0.1 µM

$$$$
>  <compound>
COC(=O)Nc1cc(C#N)ccc1-c1cc(=O)n(CC(=O)NCC2(CO)CC2)c(C)n1 [Compound I-0417]

>  <metric>
IC50

>  <valueMeasured>
0.01 to 0.1 µM

$$$$

Problem: // returns reported IC50 for input Cc1nc(-c2ccc(Cl)cc2NC(=O)C2CC2)cc(=O)n1CC(=O)NC1(C)CC1 [Compound I-0401]
Solution: 0.01 to 0.1 µM

Problem: IC50 lookup needed for COC(=O)Nc1cc(C#N)ccc1-c1cc(=O)n(CC(=O)NCc2cc(=O)[nH]o2)c(C)n1 [Compound I-0429] , thanks.
Solution: < 0.01 µM

Problem: Recorded IC50 for O=C(Cn1c(CCCC(F)(F)F)nc(-c2ccc(C(F)(F)F)cc2)cc1=O)N1CCN(CCO)CC1 [Compound I-0346] , please?
Solution: 0.01 to 0.1 µM

Problem: May I ask what IC50 has been recorded for CCCCCn1c(-c2ccc(Cl)cc2)cc(=O)n(CC(=O)NC(Cc2ccccc2)C(=O)O)c1=O (stereo not drawn) [Compound I-0151] ?
Solution: 0.1 to 1 µM

Problem: Look at this compound and give its reported IC50. Cc1nc(-c2ccc(Cl)cc2NC(=O)C2CC2)cc(=O)n1CC(=O)NC1COC1 [Compound I-0404]
Solution: 0.01 to 0.1 µM

Problem: // returns reported IC50 for input Cc1nc(-c2ccc(Cl)cc2NC(=O)C2CC2)cc(=O)n1CC(=O)NC(C)(C)C(F)(F)F [Compound I-0462]
Solution: 0.01 to 0.1 µM

Problem: Look up IC50: N#CCCCOc1nc(-c2ccc(Cl)cc2)cc(=O)n1CC(=O)NC(Cc1ccccc1)C(=O)O (stereo not drawn) [Compound I-0116]
Solution: 0.01 to 0.1 µM

Problem: State the recorded IC50 for this entry: CC1(NC(=O)c2cccc(Cn3c(CCCC(F)(F)F)nc(-c4ccc(Cl)cc4)cc3=O)c2)COC1 [Compound I-0185]
Solution: 0.1 to 1 µM

Problem: Fill blank: measured IC50 of the compound O=C(Cn1c(CCCC(F)(F)F)nc(-c2ccc(C(F)(F)F)cc2)cc1=O)NCc1ccc(O)nc1 [Compound I-0340] is ____.
Solution: 0.1 to 1 µM

Problem: Need IC50, item CNC(=O)CNC(=O)c1cccc(Cn2c(CCCC(F)(F)F)nc(-c3ccc(Cl)cc3)cc2=O)c1 [Compound I-0182]
Solution: 0.1 to 1 µM

Problem: Need IC50, item CC(C)(C)C(=O)Nc1cc(Cl)ccc1-c1cc(=O)n(Cc2cccc(C(=O)Nc3cnccc3O)c2)cn1 [Compound I-0491]
Solution: 0.1 to 1 µM

###

# targetEntity: Human autotaxin enzyme (Homo sapiens, UniProt Q13822)
# Construct: purchased R&D System
# experimentSummary: Evaluation of autotaxin inhibitor, 18:0 Lyso PC / choline assay (Test Example 2)
# Format: biochemical
# cond: human autotaxin enzyme, 18:0 Lyso PC substrate, choline assay, room temperature 2 hours; read-out: Inhibitor activity (IC50)
Reported IC50 is given for each of the following molecules.

For orientation, consider the following solved cases.
>  <molecule>
COC(=O)Nc1cc(Cl)ccc1-c1cc(=O)n(CC(=O)NCC2CCC(=O)N2)c(C)n1 (stereo not shown)

>  <IC50>
10 to 100 nM

$$$$
>  <molecule>
CCCCCc1nc(-c2ccc(Cl)cc2)cc(=O)n1CC(=O)NC1(C(=O)O)CC1

>  <IC50>
10 to 100 nM

$$$$
>  <molecule>
CCCCCc1nc(-c2ccc(Cl)cc2)cc(=O)n1CC(=O)NC(C)C(=O)O (stereo not shown)

>  <IC50>
10 to 100 nM

$$$$
>  <molecule>
CCCCCc1nc(-c2ccc(Cl)cc2)cc(=O)n1CC(=O)NCCO

>  <IC50>
100 to 1000 nM

$$$$
>  <molecule>
CCCCCc1nc(-c2ccc(Cl)cc2)cc(=O)n1CC(=O)NCCS(C)(=O)=O

>  <IC50>
10 to 100 nM

$$$$
>  <molecule>
CCCCCOc1nc(-c2ccc(Cl)cc2)cc(=O)n1CC(=O)NC(Cc1ccccc1)C(=O)O (stereo not shown)

>  <IC50>
10 to 100 nM

$$$$
>  <molecule>
O=C(N[C@H]1CC[C@H](O)CC1)c1cccc(Cn2c(CCCC(F)(F)F)nc(-c3ccc(Cl)cc3)cc2=O)c1

>  <IC50>
100 to 1000 nM

$$$$
>  <molecule>
COC(=O)Cn1c(CCCC(F)(F)F)nc(-c2ccc(Cl)cc2)cc1=O

>  <IC50>
10 to 100 nM

$$$$

Problem: Look up IC50 for this molecule: O=C(Cn1c(CCCC(F)(F)F)nc(-c2ccc(Cl)cc2)cc1=O)N1CCN(CCO)CC1
Solution: 10 to 100 nM

Problem: If you can, please state the reported IC50 value of CCCOCc1nc(-c2ccc(Cl)cc2)cc(=O)n1CC(=O)NC1(CO)CC1 .
Solution: 100 to 1000 nM

###

Measured pIC50 values are reported for all entries that follow.
# targetEntity: Human autotaxin enzyme (Homo sapiens, UniProt Q13822)
# Construct: purchased R&D System
# experimentSummary: Evaluation of autotaxin inhibitor, 18:0 Lyso PC / choline assay (Test Example 2)
# Assay type: biochemical
# cond: human autotaxin enzyme, 18:0 Lyso PC substrate, choline assay, room temperature 2 hours; read-out: Inhibitor activity (IC50)
pIC50: −log10 of the molar value.

Look over these answered cases.
>  <molecule>
CCCCCc1nc(-c2ccc(Cl)cc2)cc(=O)n1CC(=O)N1CCOC(c2ccccc2)C1 (centres unmarked) [Compound I-0100]

>  <targetEntity>
Human autotaxin enzyme (Homo sapiens, UniProt Q13822)

>  <pIC50>
6.00 to 7.00

$$$$
>  <molecule>
CCCCCc1nc(-c2ccc(Cl)cc2)cc(=O)n1CC(=O)NCCCCCC(=O)O [Compound I-0043]

>  <targetEntity>
Human autotaxin enzyme (Homo sapiens, UniProt Q13822)

>  <pIC50>
7.00 to 8.00

$$$$
>  <molecule>
CN(C)C(=O)CNC(=O)Cn1c(CCCC(F)(F)F)nc(-c2ccc(Cl)cc2)cc1=O [Compound I-0127]

>  <targetEntity>
Human autotaxin enzyme (Homo sapiens, UniProt Q13822)

>  <pIC50>
6.00 to 7.00

$$$$
>  <molecule>
CCCCCNc1nc(-c2ccc(C(F)(F)F)cc2)cc(=O)n1Cc1cccc(C(=O)O)c1 [Compound I-0012]

>  <targetEntity>
Human autotaxin enzyme (Homo sapiens, UniProt Q13822)

>  <pIC50>
7.00 to 8.00

$$$$
>  <molecule>
CCCCCNc1nc(-c2ccc(C#N)cc2)cc(=O)n1Cc1cccc(C(=O)OC(C)(C)C)c1 [Compound I-0021]

>  <targetEntity>
Human autotaxin enzyme (Homo sapiens, UniProt Q13822)

>  <pIC50>
6.00 to 7.00

$$$$
>  <molecule>
COC1CCN(c2cc(=O)n(CC(=O)NC3(C#N)CC3)c(CCCC(F)(F)F)n2)CC1 [Compound I-0238]

>  <targetEntity>
Human autotaxin enzyme (Homo sapiens, UniProt Q13822)

>  <pIC50>
6.00 to 7.00

$$$$
>  <molecule>
O=C(Cn1c(CCCC(F)(F)F)nc(C2=CCC(C(F)(F)F)CC2)cc1=O)NCC1(CO)COC1 (centres unmarked) [Compound I-0339]

>  <targetEntity>
Human autotaxin enzyme (Homo sapiens, UniProt Q13822)

>  <pIC50>
7.00 to 8.00

$$$$
>  <molecule>
COC(=O)Nc1cc(C#N)ccc1-c1cc(=O)n(CC(=O)OC(C)(C)C)c(C)n1 [Compound I-0263]

>  <targetEntity>
Human autotaxin enzyme (Homo sapiens, UniProt Q13822)

>  <pIC50>
> 8.00

$$$$

Problem: I would be grateful if you could share the reported pIC50 for CC(C)(C)OC(=O)Cn1cnc(-c2ccc(Cl)cc2)cc1=O [Compound I-0388] .
Solution: ≤ 6.00
